Tested on: NCI-H23 lung
PROCEDURE_SUMMARY: NCI-60 one-dose screen, 48 h (100 = growth as untreated, 0 = no growth, -100 = all killed)
CONDITIONS: 10 µM unless noted
Compounds without any hit were thinned out: in the full panel of roughly 83,000, 20% have a hit.
In plain terms, low growth, meaning strictly below 50%, gives criterion met, and everything else gives criterion not met.

# MOLECULE, QUALITATIVE_LABEL
records = [
    ("CN1CCN(Cc2ccc(NC(=O)c3cncc(C#Cc4c(N)ncc5ccc(C#N)cc45)c3)cc2C(F)(F)F)CC1", "criterion met"),
    ("Cc1cc2cc3cc(C)c(N(C)C)cc3nc2cc1N(C)C", "criterion met"),
    ("COc1ccc(/C=C2\\N=C3SC=C(N)N3C2=O)cc1", "criterion met"),
    ("O=[N+]([O-])c1cccc(-c2nc3sccn3c2-c2ccnc(NCCCNS(=O)(=O)c3ccc(F)cc3)n2)c1", "criterion met"),
    ("CC[C@@H](C)OC(=O)c1nn(C(C)=O)c2ccccc12", "criterion not met"),
    ("COc1ccc(S(=O)(=O)NCCNc2nccc(-c3c(-c4cccc([N+](=O)[O-])c4)nc4sccn34)n2)cc1", "criterion not met"),
    ("COc1ccc2nc3cc(Cl)ccc3c(N3CCN(c4nccc(Nc5ccc(Cl)cc5)n4)CC3)c2c1", "criterion not met"),
    ("O=S(=O)(Nc1ccc(F)c(Cl)c1)c1ccc(-c2cnc(C3CC3)o2)cc1", "criterion met"),
    ("CCNS(=O)(=O)c1ncnc2nc[nH]c12", "criterion not met"),
    ("COc1ccc(-c2cc(=O)[nH]c3c(OC)c4ccccc4c(OC)c23)cc1", "criterion met"),
    ("O=C(NCc1cccc(C(F)(F)F)c1)[C@H](CCC(=O)N1CCN(C2CCCCC2)CC1)N1C(=O)[C@@H](N2C(=O)OC[C@@H]2c2ccccc2)[C@H]1/C(Cl)=C/c1ccccc1", "criterion not met"),
    ("CCCCCC(=O)N(CCCC)CCCC", "criterion not met"),
    ("COc1c(C2CC(=O)Nc3c2cnn3Cc2ccco2)cc2c(c1OC)OCO2 (configuration not stated)", "criterion met"),
    ("Cc1cc(Nc2nc(N3CCOCC3)nc3ccccc23)n[nH]1", "criterion not met"),
    ("NC(CC(=O)O)C(=O)OCc1ccccc1 (configuration not stated)", "criterion not met"),
    ("Cc1ccc(S(=O)(=O)n2cc(-c3csc(-c4cn(C)c5ncccc45)n3)c3ccccc32)cc1", "criterion not met"),
    ("O=C(Nc1cccc2[nH]c(C(F)(F)F)nc12)c1ccc(Br)cc1F", "criterion met"),
    ("COc1ccccc1/C=C(/C(=O)c1ccccc1)c1ccccc1", "criterion not met"),
    ("CCCCCCCCSC1=CC(=O)C(OC)=C(OC)C1=O", "criterion met"),
    ("Nc1nc2ccc(-c3nc4ccc5[nH]ncc5c4c4c3CCC4)cc2s1", "criterion met"),
    ("O=C1c2c[n+](Cc3ccccc3)ccc2-c2nc3ccccc3c3ccnc1c23", "criterion met"),
]
